Assay target: T1, murine NRP1 (mouse, UniProt P97333)
T1 chain: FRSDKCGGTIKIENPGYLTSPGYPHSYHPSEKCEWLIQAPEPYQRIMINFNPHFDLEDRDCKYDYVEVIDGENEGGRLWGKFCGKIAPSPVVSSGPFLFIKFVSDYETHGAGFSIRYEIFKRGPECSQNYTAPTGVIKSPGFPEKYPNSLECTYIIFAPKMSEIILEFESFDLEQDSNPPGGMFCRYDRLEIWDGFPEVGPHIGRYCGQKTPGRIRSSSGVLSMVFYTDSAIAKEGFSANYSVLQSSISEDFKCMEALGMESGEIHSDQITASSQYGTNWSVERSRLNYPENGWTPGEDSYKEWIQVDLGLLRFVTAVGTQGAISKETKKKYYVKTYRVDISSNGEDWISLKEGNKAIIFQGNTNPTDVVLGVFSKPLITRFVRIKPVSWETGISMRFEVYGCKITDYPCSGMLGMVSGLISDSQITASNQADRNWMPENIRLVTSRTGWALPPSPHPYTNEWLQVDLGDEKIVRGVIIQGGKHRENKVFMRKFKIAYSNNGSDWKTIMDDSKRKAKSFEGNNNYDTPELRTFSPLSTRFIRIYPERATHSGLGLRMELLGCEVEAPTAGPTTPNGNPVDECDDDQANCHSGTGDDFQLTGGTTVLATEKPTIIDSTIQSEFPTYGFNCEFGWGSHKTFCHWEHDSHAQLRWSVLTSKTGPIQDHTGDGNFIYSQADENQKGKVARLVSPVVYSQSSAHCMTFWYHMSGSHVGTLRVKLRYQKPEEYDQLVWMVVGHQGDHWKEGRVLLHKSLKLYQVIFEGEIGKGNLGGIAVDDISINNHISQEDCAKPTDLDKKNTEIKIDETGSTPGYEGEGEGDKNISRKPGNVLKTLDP
Assay comment: competition phage ELISA
pIC50 for assorted binders
Reminder that pIC50 means the negative base-10 logarithm of the concentration expressed in mol/L.

Recorded pIC50, per entry:
Binder: YW107.4.42 (antibody, V domains shown) VH: EVQLVESGGGLVQPGGSLRLSCAASGFTFSSYAMSWVRQAPGKGLEWVSQISPAGGYTNYADSVKGRFTISADTSKNTAYLQMNSLRAEDTAVYYCARELPYYRMSKVMDVWGQGTLVTVSS VL: DIQMTQSPSSLSASVGDRVTITCRASQWIHSYLAWYQQKPGKAPKLLIYGASSSASGVPSRFSGSGSGTDFTLTISSLQPEDFATYYCQQYYSSPLTFGQGTKVEIKR
pIC50: 8.92

Binder: YW107.4.63 (antibody, V domains shown) VH: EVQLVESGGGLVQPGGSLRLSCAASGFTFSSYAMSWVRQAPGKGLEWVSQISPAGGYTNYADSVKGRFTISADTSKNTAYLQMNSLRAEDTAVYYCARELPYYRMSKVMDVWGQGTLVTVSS VL: DIQMTQSPSSLSASVGDRVTITCRASQYLSSYLAWYQQKPGKAPKLLIYGASSSESGVPSRFSGSGSGTDFTLTISSLQPEDFATYYCQQYISVPLTFGQGTKVEIKR
pIC50: 9.10

Let us examine a further case.
So what's the measured pIC50 for this one? YW107.4.52 (antibody, V domains shown) VH: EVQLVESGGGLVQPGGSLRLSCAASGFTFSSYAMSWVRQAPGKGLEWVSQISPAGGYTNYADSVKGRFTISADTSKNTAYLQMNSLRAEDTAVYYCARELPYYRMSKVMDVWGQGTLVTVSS VL: DIQMTQSPSSLSASVGDRVTITCRASQYFSSYLAWYQQKPGKAPKLLIYGASTLASGVPSRFSGSGSGTDFTLTISSLQPEDFATYYCQQYIRSPLTFGQGTKVEIKR
8.96
